- protocol notes: Inhibition of FTase
metric name: IC50 (nM)

{"molecule": "COCc1cccc(-c2cc(C#N)ccc2COC(c2ccc(C#N)cc2)c2cncn2C)c1 (centres undefined)", "readout unit": "nM", "IC50": 0.19}

(1) Cc1ccc(CNC(=O)C2CN(C3c4ccc(Cl)cc4CCc4cc(Br)cnc43)CCN2C(=O)NC2CCCCC2)cn1 (centres undefined)
(2) N#Cc1ccc(Cn2cncc2Cn2ccc3cc(-c4cccc5ccccc45)c(C#N)cc32)cc1
(3) Cn1cncc1C(OCc1ccc(C#N)cc1)c1ccc(C#N)c(-c2cc3ccccc3s2)c1 (centres undefined)
Q) Reorder the items by IC50, least to greatest. Please write the labels in the order that was asked for.
A) 2, 1, 3

====

- protocol notes: Inhibition of FTase
pIC50: −log10 of the molar value.
metric name: pIC50

{"molecule": "CCOc1cccc(-c2cc(C#N)ccc2COCc2cncn2Cc2ccc(C#N)cc2)c1", "pIC50": 9.57}
{"molecule": "CCOc1cccc(-c2cc(C#N)ccc2C#CC(O)(c2ccc(C#N)cc2)c2cncn2C)c1 (stereo not drawn)", "pIC50": 9.14}
{"molecule": "N#Cc1ccc(Cn2cncc2COCc2ccc(C#N)cc2-c2cccc(OC(F)(F)F)c2)cc1", "pIC50": 9.31}
{"molecule": "Cn1cncc1C(O)(c1ccc(Cl)cc1)c1ccc2c(c1)n(Cc1cccc(Cl)c1)c(=O)n2C (stereo not drawn)", "pIC50": 6.82}
{"molecule": "N#Cc1ccc(COCc2cncn2Cc2ccc(C#N)cc2-c2cccc3ccccc23)cc1", "pIC50": 9.02}

(1) CCOc1cccc(-c2cc(C#N)ccc2CNCc2cncn2Cc2ccc(C#N)cc2)c1
(2) Cn1cncc1C(OCc1ccc(C#N)cc1NS(=O)(=O)c1cccs1)c1ccc(C#N)cc1 (stereo not drawn)
Q) Could you please tell me which of these two has the higher pIC50: 1 or 2 ? State the label of the item chosen.
A) 1
(1: 10.85, 2: 9.06)

(P) COc1cccc(-c2cc(N)ccc2COC(c2ccc(C#N)cc2)c2cncn2C)c1 (stereo not drawn)
(Q) CCOc1cccc(-n2c(=O)n(C)c3ccc(C(O)(c4ccc(C#N)cc4)c4cncn4C)cc32)c1 (stereo not drawn)
(R) Cn1cncc1C(OCc1ccc(C#N)cc1-c1ccc2c(c1)OC(F)(F)O2)c1ccc(C#N)cc1 (stereo not drawn)
Q) Order the records so the highest pIC50 appears first and the lowest last. Please write the labels in the order that was asked for.
A) Q, R, P
(Q: 9.30, R: 8.96, P: 7.40)

(a) O=C(Nc1nncs1)C1CN(C2c3ccc(Cl)cc3CCc3cc(Br)cnc32)CCN1C(=O)NC1CCCCC1 (stereo not drawn)
(b) CCCCC(=O)N1CCN(C2c3ccc(Cl)cc3CCc3cc(Br)ccc32)CC1C(=O)NCc1ccc[n+]([O-])c1 (stereo not drawn)
(c) C[n+]1cccc(NC(=O)C2CN(C3c4ccc(Cl)cc4CCc4cc(Br)cnc43)CCN2C(=O)NC2CC2)c1 (stereo not drawn)
(d) CS(=O)(=O)Cn1cncc1COCc1ccc(C#N)cc1-c1cccc(Cl)c1
(e) N#Cc1ccc(OCc2cn(Cc3ccc(C#N)c(-c4ccc5ccccc5c4)c3)cn2)cc1
Q) Reorder the items by pIC50, least to greatest. Please write the labels in the order that was asked for.
A) b, a, d, c, e

(1) Cn1c(=O)cc(-c2cccc(Cl)c2)c2cc(Cn3cncc3Cn3ccc(C(=O)N4CCOCC4)c3)ccc21
(2) Cc1ccccc1-c1cc(C(OCc2cccc(C(F)(F)F)c2)c2cncn2C)ccc1C#N (stereo not drawn)
(3) Cn1cncc1C(O)(c1ccc(C#N)cc1)c1ccc2c(c1)n(-c1cccc(Cl)c1)c(=O)n2C (stereo not drawn)
Q) Reorder the items by pIC50, least to greatest. Please write the labels in the order that was asked for.
A) 1, 2, 3
(1: 6.00, 2: 7.54, 3: 8.85)
